- assay_remarks: Therapeutic drug monitoring of everolimus in the case patient (UHPLC-MS/MS)
- Format: in vivo
- test_context: human, plasma, oral, 10 mg QD, everolimus 10 mg QD fasted, four weeks after starting treatment, co-medication carbamazepine and phenytoin; read-out: Cminss

| query_smiles | concentration at 4 weeks, ng/mL |
| --- | --- |
| CO[C@H]1C[C@@H]2CC[C@@H](C)[C@@](O)(O2)C(=O)C(=O)N2CCCC[C@H]2C(=O)O[C@H]([C@H](C)C[C@@H]2CC[C@@H](OCCO)[C@H](OC)C2)CC(=O)[C@H](C)/C=C(\C)[C@@H](O)[C@@H](OC)C(=O)[C@H](C)C[C@H](C)/C=C/C=C/C=C/1C | 3.7 |

* * *

- assay_remarks: Therapeutic drug monitoring of everolimus in the case patient (UHPLC-MS/MS)
- Format: in vivo
- test_context: human, plasma, oral, 10 mg BID, everolimus 10 mg BID, two weeks later, co-medication carbamazepine and phenytoin; read-out: Cminss
measure: concentration at 2 weeks

| compound | value_measured |
| --- | --- |
| CO[C@H]1C[C@@H]2CC[C@@H](C)[C@@](O)(O2)C(=O)C(=O)N2CCCC[C@H]2C(=O)O[C@H]([C@H](C)C[C@@H]2CC[C@@H](OCCO)[C@H](OC)C2)CC(=O)[C@H](C)/C=C(\C)[C@@H](O)[C@@H](OC)C(=O)[C@H](C)C[C@H](C)/C=C/C=C/C=C/1C [everolimus] | 10.6 ng/mL |

* * *

- assay_remarks: Therapeutic drug monitoring of everolimus in the case patient (UHPLC-MS/MS)
- Format: in vivo
- test_context: human, plasma, oral, 15 mg daily (10 mg + 5 mg), everolimus 15 mg daily (10 mg + 5 mg), four weeks later, co-medication carbamazepine and phenytoin; read-out: Cminss

| compound | concentration at 4 weeks |
| --- | --- |
| CO[C@H]1C[C@@H]2CC[C@@H](C)[C@@](O)(O2)C(=O)C(=O)N2CCCC[C@H]2C(=O)O[C@H]([C@H](C)C[C@@H]2CC[C@@H](OCCO)[C@H](OC)C2)CC(=O)[C@H](C)/C=C(\C)[C@@H](O)[C@@H](OC)C(=O)[C@H](C)C[C@H](C)/C=C/C=C/C=C/1C [everolimus] | 6.4 ng/mL |
